// MIC lookup, one value per entry
Experiment: Antibacterial activity against five Gram-negative bacteria
Format: functional
Settings: read-out: MIC
OUTCOME MEASURE: MIC (µg/mL)

1. CNCC1(C)CCN(c2c(F)cc3c(=O)c(C(=O)O)cn(C4CC4)c3c2OC)C1 (configuration not stated) :: 0.52
2. CC1CN(c2cc3c(cc2F)c(=O)c(C(=O)O)cn3C2CC2)CC(C)N1 (configuration not stated) :: 0.08
3. O=C(O)c1cn(C2CC2)c2c(F)c(N3CCNCC3)c(F)cc2c1=O :: 0.07
4. CCNCC1CCN(c2cc3c(c(C)c2F)c(=O)c(C(=O)O)cn3C2CC2)C1 (configuration not stated) :: 0.6
5. COc1c(F)c(N2CCC(N)C2)c(Cl)c2c1c(=O)c(C(=O)O)cn2C1CC1 (configuration not stated) :: 2.08
6. NC1CCN(c2c(F)cc3c(=O)c(C(=O)O)cn(-c4ccc(F)cc4F)c3c2Cl)C1 (configuration not stated) :: 0.23
7. CC1(n2cc(C(=O)O)c(=O)c3cc(F)c(N4CCC(N)C4)c(F)c32)CC1 (configuration not stated) :: 0.3
8. NC1CCN(c2c(F)cc3c(=O)c(C(=O)O)cn(C4CC4)c3c2C(F)(F)F)C1 (stereo in doubt; 45) :: 0.2
9. O=C(O)c1cn(-c2ccc(F)cc2F)c2cc(N3CCNCC3)c(F)cc2c1=O :: 0.11
10. CCNCC1CCN(c2c(F)cc3c(=O)c(C(=O)O)cn(CCF)c3c2F)C1 (configuration not stated) :: 0.4
11. NC1CCCN(c2c(F)cc3c(=O)c(C(=O)O)cn(C4CC4)c3c2C(F)(F)F)C1 (configuration not stated) :: 0.52
12. CNCC1(C)CCN(c2cc3c(cc2F)c(=O)c(C(=O)O)cn3C2CC2)C1 (configuration not stated) :: 0.4
13. CCNCC1CCN(c2c(F)cc3c(=O)c(C(=O)O)cn(CC(F)(F)F)c3c2F)C1 (configuration not stated) :: 1.82
14. NC1CCCN(c2cc3c(cc2F)c(=O)c(C(=O)O)cn3C2CC2)C1 (configuration not stated) :: 0.91
15. Nc1c(F)c(N2CCC(N)C2)c(F)c2c1c(=O)c(C(=O)O)cn2C1CC1 (configuration not stated) :: 0.01
16. CCNCC1CCN(c2c(F)cc3c(=O)c(C(=O)O)cn(CCO)c3c2F)C1 (configuration not stated) :: 50
17. NC1CCN(c2cc3c(c(O)c2F)c(=O)c(C(=O)O)cn3C2CC2)C1 (configuration not stated) :: 0.04
18. CC1CN(c2c(F)cc3c(=O)c(C(=O)O)cn(C4CC4)c3c2C(F)(F)F)CCN1 (configuration not stated) :: 0.6
19. CC1CN(c2c(F)cc3c(=O)c(C(=O)O)cn(C4CC4)c3c2C(F)(F)F)CC(C)N1 (configuration not stated) :: 0.91
20. CC1CN(c2c(F)cc3c(=O)c(C(=O)O)cn(C4CC4)c3c2Cl)CC(C)N1 (configuration not stated) :: 0.23
21. NCC1CCN(c2c(F)cc3c(=O)c(C(=O)O)cn(C4CC4)c3c2F)C1 (configuration not stated) :: 0.05
22. COc1c(N2CC(C)NC(C)C2)c(F)cc2c(=O)c(C(=O)O)cn(C3CC3)c12 (configuration not stated) :: 0.34
23. CC1(CN)CCN(c2c(F)cc3c(=O)c(C(=O)O)cn(C4CC4)c3c2Cl)C1 (configuration not stated) :: 0.07
24. CC1(CN)CCN(c2nc3c(cc2F)c(=O)c(C(=O)O)cn3C2CC2)C1 (configuration not stated) :: 0.35
25. CCn1cc(C(=O)O)c(=O)c2cc(F)c(N3CCN(C)CC3)cc21 :: 0.07
26. CN1CCN(c2c(F)cc3c(=O)c(C(=O)O)cn(CCF)c3c2F)CC1 :: 0.35
27. CC1(CN)CCN(c2c(F)cc3c(=O)c(C(=O)O)cn(C4CC4)c3c2F)C1 (configuration not stated) :: 0.13
28. NC1CCN(c2c(F)c(F)c3c(=O)c(C(=O)O)cn(C4CC4)c3c2C(F)(F)F)C1 (configuration not stated) :: 25
29. O=C(O)c1cn(C2CC2)c2c(C(F)(F)F)c(N3CCCC3)c(F)cc2c1=O :: 12.5
30. O=C(O)c1cn(C2CC2)c2c(Cl)c(N3CCNCC3)c(F)cc2c1=O :: 0.07
31. COc1c(N2CCCC(N)C2)c(F)cc2c(=O)c(C(=O)O)cn(C3CC3)c12 (configuration not stated) :: 0.23
32. CNCC1(C)CCN(c2c(F)cc3c(=O)c(C(=O)O)cn(C4CC4)c3c2Cl)C1 (configuration not stated) :: 0.26
33. CCNCC1CCN(c2cc3c(cc2F)c(=O)c(C(=O)O)cn3NC)C1 (configuration not stated) :: 12.5
34. NC1CCCN(c2c(F)cc3c(=O)c(C(=O)O)cn(C4CC4)c3c2F)C1 (configuration not stated) :: 0.13
35. CCNCC1CCN(c2c(F)c(Cl)c3c(=O)c(C(=O)O)cn(C4CC4)c3c2Cl)C1 (configuration not stated) :: 0.6
36. NCC1CCN(c2c(F)cc3c(=O)c(C(=O)O)cn(C4CC4)c3c2Cl)C1 (configuration not stated) :: 0.06
37. CC1CN(c2c(F)cc3c(=O)c(C(=O)O)cn(-c4ccc(F)cc4F)c3c2Cl)CCN1 (configuration not stated) :: 2.07
